Data origin, for the record: patent US10081665B2

Target: HLA-A*02:01 (Homo sapiens, UniProt P04439, D140Y/D185E/D98H/E176V/E277Q/G131W/G231S/I119V/I121R/I166T/I218V/L300P/L318F/N151K/N90K/P208A/P217A/Q86G/Q94H/R138H/R169H/T345S)
Experiment: MHC binding assay (UV-ligand exchange, beta2m ELISA)
Settings: binding to HLA-A*02:01, β2m ELISA
Source text: Candidate peptides for T cell based therapies according to the present invention were further tested for their MHC binding capacity (affinity). The individual peptide-MHC complexes were produced by UV-ligand exchange, where a UV-sensitive peptide is cleaved upon UV-irradiation, and exchanged with the peptide of interest as analyzed. Only peptide candidates that can effectively bind and stabilize the peptide-receptive MHC molecules prevent dissociation of the MHC complexes. […]
endpoint-label: Peptide exchange (MHC class I binding score, peptide exchange yield)

Past entries and their recorded results:
254 (ALGDKFLLRV; listed as Homo sapiens) [compound 254] | ++ (≥20% = ++)
31 (GLLETTGLLAT; listed as Homo sapiens) [compound 31] | +++ (≥50 = +++)
101 (SLLEVNEASSV; listed as Homo sapiens) [compound 101] | +++ (≥50 = +++)
280 (HLWGHALFL; listed as Homo sapiens) [compound 280] | +++ (≥50 = +++)
81 (ILAEEPIYI; listed as Homo sapiens) [compound 81] | ++ (≥20% = ++)
257 (KLIDHQGLYL; listed as Homo sapiens) [compound 257] | +++ (≥50 = +++)
60 (YLFSQGLQGL; listed as Homo sapiens) [compound 60] | +++ (≥50 = +++)
136 (LLWDAPAKC; listed as Homo sapiens) [compound 136] | +++ (≥50 = +++)

Pending substance:
Lookup result for 281 (LLLESDPKVYSL; listed as Homo sapiens) [compound 281] ; measured Peptide exchange (MHC class I binding score, peptide exchange yield): ++ (≥20% = ++)
